# assay-protocol: Metabolic stability in 80% human plasma assessed as compound remaining at 5 mg/ml measured at 30 mins by HPLC analysis
# Type: ADME, cell-free
# cond: read-out: Stability
measure-name: remaining at 0.5 h, 5 mg/ml (%)

C/C=C(\C)C(=O)O[C@@H]1CC(C)(C)C[C@H]2C3=CC[C@@H]4[C@@]5(C)CC[C@H](OC(=O)/C=C/c6ccccc6)C(C)(C)[C@@H]5CC[C@@]4(C)[C@]3(C)CC[C@@]12C(=O)O | 54.7
CC(C)=CC(=O)O[C@@H]1CC(C)(C)C[C@H]2C3=CC[C@@H]4[C@@]5(C)CC[C@H](OC(=O)/C=C/c6ccccc6)C(C)(C)[C@@H]5CC[C@@]4(C)[C@]3(C)CC[C@@]12C(=O)O | 55.5

* * *

Below is a list of entries, each paired with its recorded Activity value.
# Test system: A549
# assay-protocol: Cytotoxicity against human A549 cells transfected with NF-kappaB assessed as reduction of cell viability relative to control
# Assay type: cell-based
# Parameters: concentration or dose not given beside the values

Use the examples below as a reference point.
C/C=C(\C)C(=O)O[C@@H]1CC(C)(C)C[C@H]2C3=CC[C@@H]4[C@@]5(C)CC/C(=N\O)C(C)(C)[C@@H]5CC[C@@]4(C)[C@]3(C)CC[C@@]12C(=O)O | < 5%
CC(=O)O[C@H]1CC[C@]2(C)[C@H]3CC=C4[C@@H]5CC(C)(C)C[C@@H](OC(C)=O)[C@]5(C(=O)O)CC[C@@]4(C)[C@]3(C)CC[C@H]2C1(C)C | < 5%

Now look at this one.
Tell us which Activity value is on record for CC(C)=CC(=O)O[C@@H]1CC(C)(C)C[C@H]2C3=CC[C@@H]4[C@@]5(C)CC[C@H](O)C(C)(C)[C@@H]5CC[C@@]4(C)[C@]3(C)CC[C@@]12C(=O)O [Reduced Lantadene B]
< 5%

* * *

# assay-protocol: Chemical stability in simulated gastric fluid assessed as compound remaining at 5 mg/ml at pH 2 measured at 8 hrs by HPLC analysis
# Assay type: physicochemical
# cond: read-out: Stability
measure-name: remaining at 8 h, 5 mg/ml (%)

CC(C)=CC(=O)O[C@@H]1CC(C)(C)C[C@H]2C3=CC[C@@H]4[C@@]5(C)CC[C@H](OC(=O)/C=C/c6ccccc6)C(C)(C)[C@@H]5CC[C@@]4(C)[C@]3(C)CC[C@@]12C(=O)O | 87.6
C/C=C(\C)C(=O)O[C@@H]1CC(C)(C)C[C@H]2C3=CC[C@@H]4[C@@]5(C)CC[C@H](OC(=O)/C=C/c6ccccc6)C(C)(C)[C@@H]5CC[C@@]4(C)[C@]3(C)CC[C@@]12C(=O)O | 84.7

* * *

# assay-protocol: Chemical stability in simulated gastric fluid assessed as compound remaining at 5 mg/ml at pH 2 measured at 12 hrs by HPLC analysis
# Type: physicochemical
# cond: read-out: Stability
measure-name: remaining at 12 h, 5 mg/ml (%)

CC(C)=CC(=O)O[C@@H]1CC(C)(C)C[C@H]2C3=CC[C@@H]4[C@@]5(C)CC[C@H](OC(=O)/C=C/c6ccccc6)C(C)(C)[C@@H]5CC[C@@]4(C)[C@]3(C)CC[C@@]12C(=O)O | 81
C/C=C(\C)C(=O)O[C@@H]1CC(C)(C)C[C@H]2C3=CC[C@@H]4[C@@]5(C)CC[C@H](OC(=O)/C=C/c6ccccc6)C(C)(C)[C@@H]5CC[C@@]4(C)[C@]3(C)CC[C@@]12C(=O)O | 76.6

* * *

# subject-of-test: Inhibitor of nuclear factor kappa-B kinase subunit beta (Homo sapiens, UniProt O14920)
# Sequence (O14920 whole entry): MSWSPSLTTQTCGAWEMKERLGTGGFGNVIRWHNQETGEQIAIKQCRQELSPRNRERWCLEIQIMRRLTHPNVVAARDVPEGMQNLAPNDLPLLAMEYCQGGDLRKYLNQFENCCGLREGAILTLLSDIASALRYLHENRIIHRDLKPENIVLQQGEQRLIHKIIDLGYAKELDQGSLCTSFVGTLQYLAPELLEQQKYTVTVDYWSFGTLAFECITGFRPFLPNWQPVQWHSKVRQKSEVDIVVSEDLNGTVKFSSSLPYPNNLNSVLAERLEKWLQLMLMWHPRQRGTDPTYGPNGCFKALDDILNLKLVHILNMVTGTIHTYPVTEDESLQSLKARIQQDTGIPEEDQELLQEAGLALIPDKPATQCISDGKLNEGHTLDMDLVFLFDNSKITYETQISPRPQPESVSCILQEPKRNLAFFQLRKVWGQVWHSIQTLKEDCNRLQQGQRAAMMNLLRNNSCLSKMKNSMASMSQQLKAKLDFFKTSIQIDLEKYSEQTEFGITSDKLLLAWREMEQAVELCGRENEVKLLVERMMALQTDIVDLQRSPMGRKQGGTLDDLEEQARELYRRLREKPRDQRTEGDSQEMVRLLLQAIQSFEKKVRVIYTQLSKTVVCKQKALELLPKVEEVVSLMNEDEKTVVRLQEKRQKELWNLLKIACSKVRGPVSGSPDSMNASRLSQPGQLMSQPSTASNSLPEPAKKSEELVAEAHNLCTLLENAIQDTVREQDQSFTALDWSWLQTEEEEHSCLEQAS
# assay-protocol: Inhibition of FLAG-tagged human recombinant IKKbeta phosphorylation expressed in baculovirus infected insect Sf9 cells after 1 hr by luminescence assay
measure-name: IC50 (µmol)

C/C=C(/C)C(=O)O[C@@H]1CC(C)(C)C[C@H]2C3=CC[C@@H]4[C@@]5(C)CC[C@H](O)C(C)(C)[C@@H]5CC[C@@]4(C)[C@]3(C)CC[C@@]12C(=O)O [Reduced Lantadene A] | 2.62
C/C=C(\C)C(=O)O[C@@H]1CC(C)(C)C[C@H]2C3=CC[C@@H]4[C@@]5(C)CC[C@H](OC(=O)/C=C/c6ccccc6)C(C)(C)[C@@H]5CC[C@@]4(C)[C@]3(C)CC[C@@]12C(=O)O | 1.2
CC(C)=CC(=O)O[C@@H]1CC(C)(C)C[C@H]2C3=CC[C@@H]4[C@@]5(C)CC[C@H](O)C(C)(C)[C@@H]5CC[C@@]4(C)[C@]3(C)CC[C@@]12C(=O)O [Reduced Lantadene B] | 4.24
CC(C)=CC(=O)O[C@@H]1CC(C)(C)C[C@H]2C3=CC[C@@H]4[C@@]5(C)CC[C@H](OC(=O)/C=C/c6ccccc6)C(C)(C)[C@@H]5CC[C@@]4(C)[C@]3(C)CC[C@@]12C(=O)O | 0.94

* * *

# assay-protocol: Chemical stability in simulated gastric fluid assessed as compound remaining at 5 mg/ml at pH 2 measured at 5 hrs by HPLC analysis
# Type: physicochemical
# cond: read-out: Stability
measure-name: remaining at 5 h, 5 mg/ml (%)

CC(C)=CC(=O)O[C@@H]1CC(C)(C)C[C@H]2C3=CC[C@@H]4[C@@]5(C)CC[C@H](OC(=O)/C=C/c6ccccc6)C(C)(C)[C@@H]5CC[C@@]4(C)[C@]3(C)CC[C@@]12C(=O)O | 92.5
C/C=C(\C)C(=O)O[C@@H]1CC(C)(C)C[C@H]2C3=CC[C@@H]4[C@@]5(C)CC[C@H](OC(=O)/C=C/c6ccccc6)C(C)(C)[C@@H]5CC[C@@]4(C)[C@]3(C)CC[C@@]12C(=O)O | 90.7

* * *

# assay-protocol: Metabolic stability in 80% human plasma assessed as compound remaining at 5 mg/ml measured at 15 mins by HPLC analysis
# Format: ADME, cell-free
# cond: read-out: Stability
measure-name: remaining at 0.25 h, 5 mg/ml (%)

C/C=C(\C)C(=O)O[C@@H]1CC(C)(C)C[C@H]2C3=CC[C@@H]4[C@@]5(C)CC[C@H](OC(=O)/C=C/c6ccccc6)C(C)(C)[C@@H]5CC[C@@]4(C)[C@]3(C)CC[C@@]12C(=O)O | 74.2
CC(C)=CC(=O)O[C@@H]1CC(C)(C)C[C@H]2C3=CC[C@@H]4[C@@]5(C)CC[C@H](OC(=O)/C=C/c6ccccc6)C(C)(C)[C@@H]5CC[C@@]4(C)[C@]3(C)CC[C@@]12C(=O)O | 74.7

* * *

Below is a list of entries, each paired with its recorded Activity value.
# Test system: A549
# assay-protocol: Cytotoxicity against human A549 cells transfected with NF-kappaB assessed as reduction of cell viability relative to control
# Type: cell-based
# Design: concentration or dose not given beside the values

C/C=C(\C)C(=O)O[C@@H]1CC(C)(C)C[C@H]2C3=CC[C@@H]4[C@@]5(C)CC[C@H](OC(=O)c6ccccc6)C(C)(C)[C@@H]5CC[C@@]4(C)[C@]3(C)CC[C@@]12C(=O)O | < 5%
COC(=O)[C@@]12CC[C@]3(C)C(=CC[C@@H]4[C@@]5(C)CCC(=O)C(C)(C)[C@@H]5CC[C@]43C)[C@@H]1CC(C)(C)C[C@H]2O | < 5%
C/C=C(\C)C(=O)O[C@@H]1CC(C)(C)C[C@H]2C3=CC[C@@H]4[C@@]5(C)CC[C@H](OC(=O)c6ccccc6Cl)C(C)(C)[C@@H]5CC[C@@]4(C)[C@]3(C)CC[C@@]12C(=O)O | < 5%
CC1(C)C[C@@H](OC(=O)/C=C/c2ccccc2)[C@]2(C(=O)O)CC[C@]3(C)C(=CC[C@@H]4[C@@]5(C)CCC(=O)C(C)(C)[C@@H]5CC[C@]43C)[C@@H]2C1 | < 5%

Now look at this one.
Tell us which Activity value is on record for CC1(C)C[C@@H](O)[C@]2(C(=O)O)CC[C@]3(C)C(=CC[C@@H]4[C@@]5(C)CCC(=O)C(C)(C)[C@@H]5CC[C@]43C)[C@@H]2C1
< 5%

* * *

# System: A549
# assay-protocol: Cytotoxicity against human A549 cells after 48 hrs by MTT assay
# Assay type: functional, cell-based
measure-name: IC50 (µmol)
Hi! Could you send only the number? It should be in µmol, unit omitted.

CC1(C)C[C@@H](OC(=O)/C=C/c2ccccc2)[C@]2(C(=O)O)CC[C@]3(C)C(=CC[C@@H]4[C@@]5(C)CCC(=O)C(C)(C)[C@@H]5CC[C@]43C)[C@@H]2C1 | 3.64

Now look at this one.
Tell us which IC50 value is on record for C/C=C(/C)C(=O)O[C@@H]1CC(C)(C)C[C@H]2C3=CC[C@@H]4[C@@]5(C)CCC(=O)C(C)(C)[C@@H]5CC[C@@]4(C)[C@]3(C)CC[C@@]12C(=O)O
2.84

Values were extracted from ChEMBL document CHEMBL3112453.
